Tested on: HepG2
Assay: cell viability relative to DMSO; higher = less toxic
Conditions: 72 h; 10 nM
Where a name gives a salt, the structure may show the parent alone.
measuredEndpoint: cell viability (%)
Answers are plain numbers, in %.

Worked cases, cell viability given:
compound: Oc1cccc(Nc2ncc(F)c(Nc3cccc(O)c3)n2)c1 [R112]
outputUnit: %
testResult: 102

compound: CC[C@@H](C)N(C)C(=O)c1cc2ccccc2c(-c2ccccc2Cl)n1
outputUnit: %
testResult: 113

compound: CC1(C)CC[C@]2(C(=O)O)CC[C@]3(C)C(=CC[C@@H]4[C@@]5(C)CC[C@H](O)C(C)(C)[C@@H]5CC[C@]43C)[C@@H]2C1 [oleanolic-acid]
outputUnit: %
testResult: 96.2

compound: c1cnc2c([O][Ga]([O]c3cccc4cccnc34)[O]c3cccc4cccnc34)cccc2c1 [gallium-triquinolin-8-olate]
outputUnit: %
testResult: 102

Need cell viability for each of these compounds.
1. CC(=O)OCC(=O)[C@@]1(O)CC[C@H]2[C@@H]3CCC4=CC(=O)C=C[C@]4(C)[C@@]3(Cl)[C@@H](Cl)C[C@@]21C [dichlorisone-acetate]
2. Cc1cccc(-c2n[nH]cc2-c2ccc(F)c(-c3cnn(CCO)c3)c2)n1

Data returned:
1: 94.5; 2: 94.1

Dear reader, for each entry below, please note its cell viability.
1. CNCCc1cnc[nH]1 [N-alpha-methylhistamine-dihydrochloride]
2. Cn1ccnc1S [methimazole]
3. CCCOc1ccc(C(=O)OCCN(CC)CC)cc1N [proxymetacaine]

Data returned:
[95.9, 95.4, 102]

For every listed record, write down its cell viability.
1. CCc1cc2c(s1)-n1c(C)nnc1CN=C2c1ccccc1Cl [etizolam]
2. CCOC(=O)Nc1ccc2c(c1)N(C(=O)CN(CC)CC)c1ccccc1CC2 [CINPA-1]
3. NCCc1c[nH]c2ccc(O)cc12 [serotonin]
4. CNC(=O)c1cccc(NC(=O)N2CCC(Oc3ccccc3Cl)CC2)c1

Data returned:
1: 106; 2: 106; 3: 91.4; 4: 101

Lab note: each compound below needs its cell viability filled in.
1. Cc1nc(-c2cn3c(n2)-c2ccc(-c4cnn(C(C)(C)C(N)=O)c4)cc2OCC3)n(C(C)C)n1 [taselisib]
2. CC(C)OC(=O)OCOP(=O)(CO[C@H](C)Cn1cnc2c(N)ncnc21)OCOC(=O)OC(C)C [tenofovir-disoproxil]

Data returned:
[84.8, 101]

The origin of these recorded values is the supplement of paper PMC13380429.
